# Tested on: MS2 coat protein
# run.description: apparent KD of MS2 coat protein; higher = weaker reporter binding
# condition.parameters: Eterna round: R107; input ligand: tryptophan 2.4 mM
Param threshold (40 nM) applies to apparent KD of MS2 coat protein; output 1 when value >= threshold, 0 when value < threshold.

Determine whether measured apparent KD of MS2 coat protein meets or exceeds 40 nM for GGUAGCAGGACUGAUACCAGUCCAGCGAAUCAUACGACGCAACAUGAGGAUCACCCAUGUGACCCUUGGCAGCAGACUGCUACCG [Same State Theophylline B GF 28]
0

Item AAUGCUGCCAAGGAUUCCUCAUGAGCAGAUACCAGCUAGGAAACUAGCCCUUGGCAGCUGCAACAUGAGGAUCACCCAUGUAAUA [(T)'-(M)'-(T1)-(T2)-(M1)-(M2)_Design7] with apparent KD of MS2 coat protein of 40 nM or above?
0

Please indicate if the recorded apparent KD of MS2 coat protein for UCUAGUGCGGGAAGGAGCGCCAUACAUGAGGAUCACCCAUGUUGAGCAUGCUCGUGUACUAGGCAGGUAGGUCGCCCGCUCUACG [Radionle] meets or exceeds 40 nM.
0

Given GCCUAGCAUCGAAGGAGCGGGCAUUACGCGCGAAAGCGCGAUGCACGAGGAUCACCCGUGUCCCAGGUAGGUCGCGAUGCUAGGC [SSAB Alternative Aptamer #4 V+V2] , state whether its apparent KD of MS2 coat protein is at least 40 nM.
1

----------
# Tested on: K4 kissing-loop RNA reporter
# run.description: apparent KD of K4 kissing-loop reporter; higher = weaker reporter binding
# condition.parameters: Eterna round: R107; input ligand: FMN 200 uM
Decision: apparent KD of K4 kissing-loop reporter compared against 200 nM; not below it gives True, below it gives False.

Please tell me: is the sequence UGUACCGAGUCAGGAUAUGUCGUCGAAAGACGAAAUGGAGUGAUGUUCCUUAAACUGCGAAAGCAGACAGAAGGGACUUGGUACU [FmnBS 29 #SwitchBubble #StaticStem #DoubleMagnetSystem] at or over 200 nM in terms of apparent KD of K4 kissing-loop reporter?
False

Decide: is the reported value of apparent KD of K4 kissing-loop reporter for AUAUAUAACUGAAGGAGCGAGGCCAAAUAUAUAUAGUGAUGUUAUAUAAAGGCACAUAGGCCUCAGGUAGGUCGCAGAAUAAUAU [AstrosExyArGB#1] equal to or greater than 200 nM?
True

Is apparent KD of K4 kissing-loop reporter for CGGAUGUAGUGAUGUUAUAUUAGAUGUAGACGAGGACCGGUACGGCCGCCACUCGUGACGGCUGCUAGCGCGUUGCGAGGUGUGC [ExTryptoA.Cm] at or above 200 nM?
True

Has UUAUAUAUAUUAGAUACCAGUUUAAUGGAAACAAAUUAUGUUAUGAGUGAUGUUCAUGUAAGCCCUUGGCAGCUGGUAUGGGUUU [KL-XTheo-B18] a recorded apparent KD of K4 kissing-loop reporter greater than or equal to 200 nM?
True

# check: apparent KD of K4 kissing-loop reporter of AGAGUACGAAAGUACUCCUCUACACACUGACGAGGACCGGUACGGCCGCCACUCGAGUUGAGUGAUGUUCGAUAGUGUGUAGAGA [Omei KL Tryp A SS C v3] is greater than or equal to 200 nM
True

Is it the case that UGUCAUGGAAACAUGAACGUUGAAAUAAGACGAGGACCGGUACGGCCGCCACUCGAAUAAUGGUCAGUGAUGUUGACUGGAAUAA [KL-SSTryp-A form1 sub7 #dotplot2>1] has apparent KD of K4 kissing-loop reporter reaching or exceeding 200 nM?
False

Given the entry UCCGGUCGGUGAGCCAGUGAUGUUGGUCAGAAGGAUAUCUGGCAACAGAGAAGGUCUGCAUCAGCCUAGAUAUCCUGGCGACCGG , answer whether its apparent KD of K4 kissing-loop reporter meets or surpasses 200 nM.
False

Form field: apparent KD of K4 kissing-loop reporter at least 200 nM? Entry: GGCUUACUAGUGAUGUUAGUAUUUUCUGAAGGAGCGCGUGAAAACGCAGGUAGGUCGCAGAACCUUGCCAACUAUUUUAGUUGCC [Ex Arginine A K4 28]
False

Reported apparent KD of K4 kissing-loop reporter reaches at least 200 nM for AUUCGUUUAUGUGAUACCAGACUUUGCAGUGAUGUUGCAUUUAUUUUUGAAUUUUAGUUUGUCCCUUGGCAGCACUAUUUAUUUA [JR_SSTheophyB_Sub005] ?
False

Please check the record GAUAUAUAGACGGCCGCCACUUAUAAAUUUCAGUGAUGUUGAAAUGUUAAAUAACGAACACAAUAGAGGACCGGGUCAAAUAUCG [Same State Tryptophan B GF 2] and state if its apparent KD of K4 kissing-loop reporter is at or above 200 nM.
False

Evaluate UGAUACCAGACUGAUACCAGCAGUGAUGUUGCUGAUAAGGGUAGAGUCAAAGACUCUACCUGCCCUUGGCAGCAGUCUGGUAUCU [TheoBX 14 #SwitchBubble #StaticStem] : apparent KD of K4 kissing-loop reporter at minimum 200 nM?
False

----------
# System: K4 kissing-loop RNA reporter;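 further: bound reporter read as fluorescence of individual clusters on recovered sequencing chips by microscopy, with normalized cluster intensities fitted with a binding model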
# run.description: apparent KD of K4 kissing-loop reporter; higher = weaker reporter binding
# condition.parameters: Eterna round: R107; input ligand: tryptophan 2.4 mM
Values of apparent KD of K4 kissing-loop reporter greater than or equal to 0.1 µM map to satisfied; values below map to not satisfied.

Does the sequence UUUAUUUUCUGAGGAUAUCGUUUUACUGAAGUGAUGUUUCAGUAUUUUCAUAUUAUAUAUAAUUUUCGAGAAGGCAGUAUUAUUA [JR_Nu_SSFMNB_Sub027] have recorded apparent KD of K4 kissing-loop reporter that is 0.1 µM or more?
not satisfied

Does the reported apparent KD of K4 kissing-loop reporter for AGCGACUCGAAAGGGUCGCGGCUAAGGGAUACCAGUGAUGUUGGUCACCCUUGGCAGCCCAGAAGCCAAGCCACCAAAGGUGGCA [Omei KL Theo A Exc A v10] fall at or above the 0.1 µM mark?
satisfied

Hi team, for UGGAUAUCGUUUAGUCUGGUGAGCUCAGAUACCAGACUAGCGAUAGUCCCUUGGCAGCUGAUUAUGAUUGAGUGAUGUUCAAUCG [Theo A Ex t9b] , is the recorded apparent KD of K4 kissing-loop reporter at or above 0.1 µM?
satisfied

# check: apparent KD of K4 kissing-loop reporter of UUAGAGAUCUCAGGAUAUCAGUGAUGUUGGUUUCCAGAUCUGAGAUAGAAUUCUAUCUCAGAUCAAUGAGAAGGGAGAUCUCAUU [AK4.1 Exc FMN B] is greater than or equal to 0.1 µM
satisfied

Please indicate if the recorded apparent KD of K4 kissing-loop reporter for GCGUAGGAAGAAGGAUAUCACAGGAUGCCACGUUAGUGAUGUUAAUUUGGUUCAGCGCGAUUCUGAUGAGAAGGUCUUUUAUGAU [theeternabot_sameState_KL_FMN_B_47] meets or exceeds 0.1 µM.
satisfied

# check: apparent KD of K4 kissing-loop reporter of GUAGACGUGCCUUCAGUGAUGUUGAAGGAUACCAGAUGUUACCACAUCCCUUGGCAGCCUUGGGAUAACAGUGAGUCGGUAUAUG [Ontierso] is greater than or equal to 0.1 µM
satisfied

Quick check: does UUUUUUAAGAUAUUGACCAACCCGAAGCUACGAGGACCGGUACGGCCGCCACUCGCCAGUGAUGUUGGCGACUGGUGAAACCAUG [KL-XTryp-A24] have apparent KD of K4 kissing-loop reporter greater than or equal to 0.1 µM?
satisfied

I'd appreciate it if you could say whether AAGUGUGUGGCGGCCGCCACUAGUAUCCAGUGAUGUUGGAGAUAUCACGUAAGUGAUAUCCAACAUAGGACCGGGCCAUAUAGAA [Same State - Tryptophan B (Freestyle 17)] has apparent KD of K4 kissing-loop reporter at least equal to 0.1 µM.
not satisfied

Identify whether the reported apparent KD of K4 kissing-loop reporter of the following sequence is 0.1 µM or greater: UCGGGCGGCUGAAGGAGCGGGCGGGCCCGAGUGAUGUUCGGGUGGGCUGUGAGGCCCGGAGCCCAGGUAGGUCGCGGUUCCGCCC [#2 Same State - Arginine B Attempt #28 (HarryS)]
satisfied

Evaluate UGAUUGAACUGAAGGAGCGGCAAGAGAGAAGGAAAUAUAGUGAUGUUAUAUAAGAGAGAGAGCCAGGUAGGUCGCAGAGGGAGGA [ExArgB.D] : apparent KD of K4 kissing-loop reporter at minimum 0.1 µM?
satisfied

Check the entry CGUUUAUAGCAGGAUACCAGUACCCAUAAAGUACGUUAAUAGUAGAGUGAUGUUCUAAAGUACCCUUGGCAGCUUCCCGUGACCG [ExTheophylB.V] : does apparent KD of K4 kissing-loop reporter equal or exceed 0.1 µM?
not satisfied

Decide: apparent KD of K4 kissing-loop reporter of UGAUACCAGACUGAUACCAGCAGUGAUGUUGCUGAUAAGGGUAGAGUCAAAGACUCUACCUGCCCUUGGCAGCAGUCUGGUAUCU [TheoBX 14 #SwitchBubble #StaticStem] >= 0.1 µM?
satisfied

Does apparent KD of K4 kissing-loop reporter meet or surpass 0.1 µM for AACUUAAUUUAUAAGCAGUGAUGUUGCUCACGAGGACCGGUACGGCCGCCACUCGAUCGGACUUAGGUCUUCAAUUAUUUCAUUA [JR_ExcTryptoA_Sub017] ?
satisfied

Answer whether apparent KD of K4 kissing-loop reporter of UGAUACCAGGCGGCCGCCACUCCUACAGGUCAAAGACCUGUAAAGCUGGUUCUCCAGUGAUGUUGGAGGACCGGGCCUGGUAUCU [FiskerMod 29 - Jieux - Exclusion - Tryptophan B] is greater than or equal to 0.1 µM.
satisfied

Threshold query (apparent KD of K4 kissing-loop reporter >= 0.1 µM) on AAAAUAAAUAGCAGUCACGGAGUGAUGUUCCGAGGACCGGUACGGCCGCCACUCGACCAGACAAAGUCUGGAGGCGGAGACUGCA [#SwitchBubble 20 #K4Early]
satisfied

Please check the record GGGAUAGGAUCAGUGAUGUUGGUCCCAGAUACCAGACAAAGUCACGUCCCUUGGCAGCUGAUGAUCGCUGACGACCGGCCUCCAA [theeternabot_sameState_KL_Theo_A_7] and state if its apparent KD of K4 kissing-loop reporter is at or above 0.1 µM.
satisfied

hey, is apparent KD of K4 kissing-loop reporter for this one >= 0.1 µM? AGGUUUUGAUUAGGAUAUGCACUGAGGAGGAGAAUAUAGUGAUGUUAUAUAAGAGGAAGUAGUAGAGUAGAAGGGAUUGAGGUUU [SSFMNB.S]
satisfied

Tell me whether apparent KD of K4 kissing-loop reporter is at least 0.1 µM here: CGCUGGAGUGAUGUUCCAGCUUCUACGGAUACCAGCCACGCCAGCGGCCCUUGGCAGCCGCAAAUUGCAGUGAUGUUGUGAUGCC [Same State Theophylline A GF 4]
satisfied

Can AGUGAUGUUGUGUUAUGCUAGGGAAGUGAUCGAGGACCGGUACGGCCGCCACUCGAGUGAUGAGUGAGUGAUGUUUGUUUAGGGA [sdsmullin] be said to have apparent KD of K4 kissing-loop reporter at or above 0.1 µM?
satisfied

Quick check, apparent KD of K4 kissing-loop reporter >= 0.1 µM? GGUAGCUAGGCAGGAUAUAGCUAGUGGAGUGAUGUUCCACCAUACACGAGUGAUGUUCGUAACCUGCUAGAAGGGCCUAGCUACC
satisfied

Hello, I need to know if AUGCUUAUAAUAACACUAUAUACAACUGAAGGAGCGACAAUAAAGUCAGGUAGGUCGCAGAAUAAAUGAGUGAUGUUCAUUUUUA [JR_ExcArginiA_Sub010] has measured apparent KD of K4 kissing-loop reporter not below 0.1 µM. Thanks!
not satisfied
